Tested on: Human immunodeficiency virus 1
EXPERIMENT SUMMARY: Antiviral activity against HIV1 Clade C infected in human TZM-bl cells assessed as inhibition of viral entry incubated for 30 mins prior to infection and measured after 48 hrs post infection by luciferase reporter gene assay
Assay type: functional, organism-based
EXPERIMENTAL CONTEXT: Human immunodeficiency virus 1, Clade C
PARAMETER: pIC50
Notebook: values listed as pIC50 are -log10 of the concentration (mol/L).

Entry `CNCc1ccc2c(c1)C[C@H](CNC(=N)N)[C@H]2NC(=O)C(=O)Nc1ccc(Cl)c(F)c1` ; pIC50 = 4.77

----------
Test system: Human immunodeficiency virus 1
EXPERIMENT SUMMARY: Antiviral activity against HIV1 YU-2 infected in dog Cf2Th/CD4-CCR5 cells assessed as inhibition of viral entry incubated for 30 mins prior to infection and measured after 48 hrs post infection by luciferase reporter gene assay
Assay type: functional, organism-based
EXPERIMENTAL CONTEXT: Human immunodeficiency virus 1, YU-2, Cf2Th-CCR5
We begin with a simple list: items and their reported IC50.
Lab book: enter the figure in nM, no units written.

CNCc1ccc2c(c1)[C@H](NC(=O)C(=O)Nc1ccc(Cl)c(F)c1)[C@@H](CNC(=N)N)C2 2100

Case `CN(Cc1ccc2c(c1)C[C@H](CNC(=N)N)[C@H]2NC(=O)C(=O)Nc1ccc(Cl)c(F)c1)C(=N)N` , Human immunodeficiency virus 1, IC50 recorded as 800

Case `CNCc1ccc2c(c1)C[C@H](CNC(=N)N)[C@H]2NC(=O)C(=O)Nc1ccc(Cl)c(F)c1` , Human immunodeficiency virus 1, IC50 recorded as 1300
